- Target Entity: huCD28 (human, UniProt P10747 19-152, limits assumed)
- Assay Overview: SPR, OAA format
Measurement Kind: Fold-change from WT (fold)

1. v37878 (antibody, V domains shown, OAA format as v34891; also called huTN228 K1109A (VL) OAA) VH: QVQLQESGPGLVKPSETLSLTCAVSGFSLTSYGVHWIRQPPGKGLEWLGVIWPGGGTNFNSALMSRLTISEDTSKNQVSLKLSSVTAADTAVYYCARDRAYGNYLYAMDYWGQGTLVTVSS VL: DIQMTQSPSSLSASVGDRVTITCRASESVEYYVTSLMQWYQQKPGKAPKLLIYAASNVDSGVPSRFSGSGSGTDFTLTISSLQPEDIATYYCQQSRAVPFTFGGGTKVEIK :: 1.93
2. v37843 (antibody, V domains shown, OAA format as v34891; also called huTN228 T1035A (VH) OAA) VH: QVQLQESGPGLVKPSETLSLTCAVSGFSLASYGVHWIRQPPGKGLEWLGVIWPGGGTNFNSALMSRLTISEDTSKNQVSLKLSSVTAADTAVYYCARDRAYGNYLYAMDYWGQGTLVTVSS VL: DIQMTQSPSSLSASVGDRVTITCRASESVEYYVTSLMQWYQQKPGKAPKLLIYAASNVDSGVPSRFSGSGSGTDFTLTISSLQPEDIATYYCQQSRKVPFTFGGGTKVEIK :: 0.73
3. v37898 (antibody, V domains shown, OAA format as v34891) VH: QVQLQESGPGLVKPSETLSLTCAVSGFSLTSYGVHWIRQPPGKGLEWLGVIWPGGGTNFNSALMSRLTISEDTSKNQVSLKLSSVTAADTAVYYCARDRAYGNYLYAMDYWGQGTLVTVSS VL: DIQMTQSPSSLSASVGDRVTITCRASESVEYYVTSLLNWYQQKPGKAPKLLIYAASNVDSGVPSRFSGSGSGTDFTLTISSLQPEDIATYYCQQSRKVPFTFGGGTKVEIK :: 0.84
4. v37891 (antibody, V domains shown, OAA format as v34891; also called huTN228 L1053I (VH) OAA) VH: QVQLQESGPGLVKPSETLSLTCAVSGFSLTSYGVHWIRQPPGKGLEWIGVIWPGGGTNFNSALMSRLTISEDTSKNQVSLKLSSVTAADTAVYYCARDRAYGNYLYAMDYWGQGTLVTVSS VL: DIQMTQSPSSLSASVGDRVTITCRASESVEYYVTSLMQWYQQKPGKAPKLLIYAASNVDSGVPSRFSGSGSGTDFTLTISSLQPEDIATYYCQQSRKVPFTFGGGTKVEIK :: 0.54
5. v37879 (antibody, V domains shown, OAA format as v34891; also called huTN228 V1114A (VL) OAA) VH: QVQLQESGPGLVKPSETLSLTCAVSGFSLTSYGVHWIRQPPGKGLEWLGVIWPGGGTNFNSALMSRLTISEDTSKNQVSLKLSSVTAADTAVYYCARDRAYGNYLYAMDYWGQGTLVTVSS VL: DIQMTQSPSSLSASVGDRVTITCRASESVEYYVTSLMQWYQQKPGKAPKLLIYAASNVDSGVPSRFSGSGSGTDFTLTISSLQPEDIATYYCQQSRKAPFTFGGGTKVEIK :: 0.39

Measured values drawn from patent US20260028403A1 for this set.
